protocol notes: solvent given as SMILES
study conditions: in OCCOCCO
recorded endpoint: absorption maximum (nm)

# compound, recorded endpoint, reported value
measured = [
    ("C1=C(c2ccc(-c3cccs3)s2)CCCC1", "absorption maximum", 345),
    ("CC1CC=C(c2ccc(-c3ccc(C#N)s3)s2)CC1 (centres undefined)", "absorption maximum", 366),
    ("OC1(c2ccc(-c3cccs3)s2)CCC1", "absorption maximum", 314),
    ("O=Cc1ccc(-c2ccc(C3=CCC(c4ccccc4)CC3)s2)s1 (centres undefined)", "absorption maximum", 389),
]

---

This listing pairs compounds with measured absorption maximum.
protocol notes: solvent given as SMILES
study conditions: in O
recorded endpoint: absorption maximum (nm)

# compound, recorded endpoint, unit descriptor, reported value
records = [
    ("CCCCCCCCCCCCOc1cc2cc(N(C)C)ccc2cc1C#N", "absorption maximum", "nm", 368),
    ("CC[N+]1(CC)CN2C(=N1)C(C(=O)O)=Cc1cc(C)c(C)cc12", "absorption maximum", "nm", 378),
    ("NS(=O)(=O)c1ccc(N2N=C(c3ccc(O)cc3)CC2c2ccc([N+](=O)[O-])cc2)cc1 (centres undefined)", "absorption maximum", "nm", 354),
    ("Cc1cc2nc3cc(C)c(N)cc3[n+](-c3ccccc3)c2cc1N", "absorption maximum", "nm", 520),
    ("CCOC(=O)c1ccccc1-c1c2ccc(=[N+](CC)CC)cc-2oc2c1c(=O)oc1cc3c(cc12)CCCN3C", "absorption maximum", "nm", 602),
    ("CN(C)c1ccc2c(c1)C(C)(C)C(=O)C=C2", "absorption maximum", "nm", 413),
    ("O=[N+]([O-])c1ccc(/C=C/c2cn(S(=O)(=O)c3ccccc3)c3ccccc23)cc1", "absorption maximum", "nm", 378),
    ("CCNc1cc2oc3c/c(=[NH+]\\CC)c(C)cc-3c(-c3ccccc3C(=O)OCC)c2cc1C", "absorption maximum", "nm", 525),
    ("Cc1ccc(/C=N/c2cc(C(C)C)c(O)cc2C)cc1", "absorption maximum", "nm", 346),
    ("COCCOCCOCCOc1cc(C=O)c(OCCOCCOCCOC)cc1C=O", "absorption maximum", "nm", 394),
    ("O=S(=O)([O-])c1ccc2c(O)cc(S(=O)(=O)[O-])cc2c1", "absorption maximum", "nm", 295),
    ("CCN(CC)c1ccc2cc(/C=C/c3cccc[n+]3CCCS(=O)(=O)[O-])c(=O)oc2c1", "absorption maximum", "nm", 481),
    ("C=CCNc1ccc2ccc3oc4cc(=O)ccc-4nc3c2c1", "absorption maximum", "nm", 522),
    ("CC[n+]1c(-c2ccccc2)c2cc(NC(=O)NCC[NH3+])ccc2c2ccc(NC(=O)NCC[NH3+])cc21", "absorption maximum", "nm", 438),
    ("CNCCCN1c2ccccc2CCc2ccccc21", "absorption maximum", "nm", 275),
    ("CSc1ccc2c(c1)N(CCCN1CCN(C)CN1C)c1ccccc1S2", "absorption maximum", "nm", 312),
    ("CCOC(=O)/C=C/c1ccc(N(C)C)cc1", "absorption maximum", "nm", 373),
    ("Fc1ccc2cc3cccc[n+]3cc2c1", "absorption maximum", "nm", 400),
    ("CC[n+]1c(-c2ccccc2)c2cc(NC(N)=O)ccc2c2ccc(NC(N)=O)cc21", "absorption maximum", "nm", 434),
    ("Cc1cc(=O)c2ccc(N)cc2o1", "absorption maximum", "nm", 322),
    ("c1ccc(-c2nc(-c3c4ccccc4cc4ccccc34)n3ccccc23)cc1", "absorption maximum", "nm", 375),
    ("c1ccc2c[n+]3ccccc3cc2c1", "absorption maximum", "nm", 396),
    ("CCC/N=C/c1cc2ccc(N(C)C)cc2cc1OC", "absorption maximum", "nm", 438),
    ("CN(C)c1ccc2c(-c3cc(C(=O)[O-])ccc3C(=O)[O-])c3ccc(=[N+](C)C)cc-3oc2c1", "absorption maximum", "nm", 549),
    ("CC(=O)OC[C@@H]1O[C@H](n2cnc3c2N=CN2Cc4c[n+](C)c(C)nc4N=C32)[C@@H](O)[C@H]1O", "absorption maximum", "nm", 383),
    ("Cc1cc(C)nc(N)n1", "absorption maximum", "nm", 284),
    ("CCCCn1c(-c2ccc(-c3ccc(-c4ccc(-c5n(CCCC)c6ccccc6[n+]5CCCC)cc4)cc3)cc2)[n+](CCCC)c2ccccc21", "absorption maximum", "nm", 303),
    ("CC1=CC(C)=[N+]2C1=C(c1ccccc1)c1c(C)cc(/C=C/c3ccc(O)cc3)n1[B-]2(F)F", "absorption maximum", "nm", 565),
    ("C=CCNc1ccc2c(ccc3oc4cc(=[N+](C)C)ccc-4nc32)c1", "absorption maximum", "nm", 579),
    ("Cc1ccc2c(c1)c(=O)c1ccccc1n2CCCCCC(=O)O", "absorption maximum", "nm", 419),
    ("CC[n+]1nc2cc3c4c(c2c2ccccc21)CCCN4CCC3", "absorption maximum", "nm", 493),
    ("c1ccncc1", "absorption maximum", "nm", 253),
    ("O=C([O-])c1cc2c(ccc3ccccc32)oc1=O", "absorption maximum", "nm", 360),
    ("CN1C(=O)/C(=C/c2ccncc2)N=C1/C=C/c1ccccc1", "absorption maximum", "nm", 408),
    ("O=C1C=C(Nc2ccccc2)CCC1", "absorption maximum", "nm", 306),
    ("Nc1n[n+]([O-])c2cc(F)ccc2[n+]1[O-]", "absorption maximum", "nm", 468),
    ("Cc1cc(/N=C/c2cc(S(=O)(=O)[O][Na])ccc2O)c(/N=C/c2cc(S(=O)(=O)[O][Na])ccc2O)cc1C", "absorption maximum", "nm", 371),
    ("CC[N+]1(CC)CN2C(=N1)C(C(=O)O)=Cc1c(OC)ccc(OC)c12", "absorption maximum", "nm", 368),
    ("N#Cc1c(N2CCCCC2)cc(-c2ccc3c(c2)OCO3)c2c1-c1cccc3cccc-2c13", "absorption maximum", "nm", 429),
    ("O=C1NC(=O)/C(=C\\c2ccccc2O)S1", "absorption maximum", "nm", 351),
    ("CCN(CC)c1ccc2c(-c3ccccc3C(=O)[O-])c3ccc(=[N+](CC)CC)cc-3oc2c1", "absorption maximum", "nm", 554),
    ("Nc1cc([NH3+])cc(-c2nc3ccccc3s2)c1", "absorption maximum", "nm", 300),
    ("C=CCNc1ccc2ccc3oc4cc(=[N+]5CCCC5)ccc-4nc3c2c1", "absorption maximum", "nm", 556),
    ("COc1ccc2c(=O)c3c([nH]c2c1)-c1cc(Cl)ccc1NC3(C)C", "absorption maximum", "nm", 405),
]
